Tested on: SF-539 CNS
Assay: NCI tumour cell line growth inhibition, 48 h
measured-metric: TGI

What value of TGI has been recorded for this entry: NCCCCCC(CCN)SCC1OC(n2cnc3c(N)ncnc32)C(O)C1O (stereo unspecified) > 1240 µM

Endpoint output: TGI of O=C(O)c1ccccc1CN1CCCC(C(=O)O)C1 (stereo unspecified) . Value? > 100 µM

Fill in: TGI of `O=C(NCc1cn(Cc2cccc(Oc3ccccc3)c2)nn1)c1cccnc1Nc1ccc(F)cc1` is ___ > 100 µM

Can you look up the measured TGI of `Brc1ccc(C2=NCSC(c3ccc(Br)cc3)=N2)cc1` for me? 99.2 µM

Record request: TGI value, item `C#CCN(Cc1ccc2nc(-c3ccccc3)c(Cl)nc2c1)c1ccc(F)cc1` > 100 µM

State the recorded TGI for this entry: CC1(OCc2ccccc2)C(=O)N2C1NCC2(C)C (stereo unspecified) > 100 µM

Give the measured TGI of `CC(=O)c1ccc(Br)cc1NC1=CC(=O)c2ncccc2C1=O` . 6.96 µM

Can you look up the measured TGI of `COc1ccc2c(c1)/C(=C/c1c(O)[nH]c(=S)[nH]c1=O)C=N2` for me? > 100 µM

Consider the compound shown here: `N=C(N)SCc1ccc2c(c1)S(=O)(=O)c1ccccc1O2` What is its recorded TGI? 55.7 µM

Data request, read-out TGI, for `O=C(O)CN1CCSc2ccccc2CN(CC(=O)O)CCSc2ccccc2C1` > 100 µM

Given Cc1ccc2c(c1C)C(=O)C1(C2)Cc2ccc3c(c2C1=O)CCC3 (stereo unspecified) , state its recorded TGI. > 100 µM

###

Test system: HCC-2998 colon
Experiment: NCI tumour cell line growth inhibition, 48 h
measured-metric: TGI

Recorded TGI for `O=C1c2ccccc2C(=O)N1/N=C1/SC(=Nc2ccccc2)C(=Nc2ccccc2)N1c1ccccc1` , please? > 100 µM

GET /values?readout=TGI&item= C#CCOC(=O)C(N)CC(N)=O (stereo unspecified) > 100 µM

Given the compound CN(C)CC1CC/C(=C\c2ccc(Cl)c(Cl)c2)C1=O (stereo unspecified) , what is its reported TGI? > 58.5 µM

What value of TGI has been reported for the following compound? COC(=O)NC(=O)NC(Cc1ccccc1)NC(=O)OCc1ccccc1 (stereo unspecified) > 100 µM

Need TGI, item `O=c1c2ccccc2nc(-c2cccc([N+](=O)[O-])c2)n1O` > 100 µM

Which TGI value belongs to CCCCCCCCCCCCCCCCOCC(COP(=O)(O)OCC1OC(n2cc(CC)c(=O)[nH]c2=O)CC1O)OC(=O)CCCCCCCCCCCCCCC (stereo unspecified) ? > 100 µM

Which TGI is listed for `CCCCn1c(=O)[nH]c(N)c([C@@H]2c3c([nH]c(=O)n(CCCC)c3=O)Oc3ccc4ccccc4c32)c1=O` ? 3.47 µM

# lookup: TGI of Cn1cc(C2NC(=O)c3ccccc3N2)c2ccccc21 (stereo unspecified) 7.45 µM

Fill in the blank: the reported TGI of `CC1(C)N=C(N)N=C(N)N1c1ccc(OCCCNC(=O)Nc2ccc(S(=O)(=O)F)cc2)c(Cl)c1` is ____. > 100 µM

I'd like to know its TGI. The compound in question is `O=C1c2ccccc2-c2nnc3c(c21)Cc1ccccc1C3` > 10 µM

So what does the record say about TGI for `CN1C(=O)C(c2c[nH]c3ccccc23)=C(c2c[nH]c3ccccc23)C1=O` ? 13.1 µM

Given the entry `COc1ccc2c(O)c(Oc3ccc(Cl)cc3)c(=O)oc2c1` , report its measured TGI. > 100 µM

# TGI lookup, item `COc1cccc2c1nc(C(F)F)n2-c1nc(-c2ccc(NS(=O)(=O)CCN(C)C)cc2)nc(N2CCOCC2)n1` 17.4 µM

Find the recorded TGI belonging to `O=C(CCCc1ccc(N(CCCl)CCCl)cc1)NCc1ccccc1` and report it. 36.4 µM

For the compound shown here, `CCCc1nnc2sc(COc3ccc(OCc4nn5c(CCC)nnc5s4)c(Cl)c3)nn12` , give the reported TGI. 64.1 µM

Give its TGI value. Item: `Clc1ccc(/C=C/c2nc(-c3ccccc3)cn3c2nc2ccccc23)cc1Cl` > 100 µM

I would be grateful if you could share the reported TGI for `CC(=O)N1C/C(=C\c2ccccc2)C(=O)/C(=C/c2ccccc2)C1` . 25 µM

Look up TGI for this compound: `Cn1cc(C2=C(c3ccsc3)C(=O)NC2=O)c2ccccc21` > 25 µM

Value lookup for TGI; key = `Fc1ccc(Nc2nc(Cl)c3[nH]cnc3n2)cc1Cl` > 100 µM

Request the reported TGI associated with O=C1C(Cl)C(c2cccc([N+](=O)[O-])c2)N1n1cnc2ccccc2c1=O (stereo unspecified) > 100 µM

Field request: TGI | item: `COc1ccc(N2C(=O)c3cc([N+](=O)[O-])cnc3S2(=O)=O)cc1` > 100 µM
